# System: RPF2
# Test description: pooled miR-30 sensor sort-seq; sequence = guide strand; also: reference of the scale not given here
# Assay setup: shRNA
Entries and their measured sensor-assay potency score (higher = more potent) follow.

{"columns": ["Query sequence", "System", "Observed value"],
 "data": [
  ["TTAGTCTTCTATAATCTTCTGT", "RPF2", 0.354],
  ["TTATATAGTACACCGTATGGTT", "RPF2", -0.793],
  ["TAATTTATAAAGGTCATCCGAT", "RPF2", -0.21],
  ["ATAATCTTCTGTTACATCGAAA", "RPF2", -0.564]
]}

Now examine the next entry.
Noted sensor-assay potency score (higher = more potent) for TTTGCTTAGGTCTTGCTTCTGC , tested on RPF2: 0.678

---

Catalogue of sequences with associated sensor-assay potency score (higher = more potent)
# System: CNOT1
# Test description: pooled miR-30 sensor sort-seq; sequence = guide strand
# Assay setup: shRNA
Please reply with the value in numeric form only.

{"columns": ["Query sequence", "System", "Observed value"],
 "data": [
  ["TACAGTTAAATACTTCTCGTTC", "CNOT1", -0.0593],
  ["TTGAAATCCAGGATGGTCCAGT", "CNOT1", 0.513],
  ["TATCTCTTTACTAAAGTGCTGG", "CNOT1", -0.169],
  ["TTTTGTGTCATATTTGACTGTG", "CNOT1", 0.162],
  ["TAGGTGAAGATCATACTGCTGC", "CNOT1", 0.544]
]}

Now consider a different sequence.
Form: sequence = TTATATGTAACTCTTTATCAGG ; sensor-assay potency score (higher = more potent) = -0.895

---

# System: ZNF20
# Test description: pooled miR-30 sensor sort-seq; sequence = guide strand
# Assay setup: shRNA
Mark T for reported sensor-assay potency score (higher = more potent) of -0.7 or greater; mark F for anything smaller.

These solved cases illustrate the format of a correct answer.
{"columns": ["Query sequence", "System", "Group"],
 "data": [
  ["TTCAATGTTCTGAACTTTCCAT", "ZNF20", "T"],
  ["TACCACAGTGCTTACATTCATA", "ZNF20", "T"],
  ["TATTAAGAGATGAATGACCCGT", "ZNF20", "T"],
  ["TTTCTCTTTAGTGCAAGCTTTA", "ZNF20", "F"],
  ["TTTCTCTCCACTGTGCGTCCTT", "ZNF20", "T"]
]}

QUERY: # bool: sensor-assay potency score (higher = more potent) of TAGTGCAAGCTTTATCATGTGA >= -0.7
RESULT: T

---

# System: ARHGEF15
# Test description: pooled miR-30 sensor sort-seq; sequence = guide strand
# Assay setup: shRNA
Below, each of the sequences is paired with its reported sensor-assay potency score (higher = more potent) value.
Just the number.

Record excerpt, results attached:
{"columns": ["Query sequence", "Observed value"],
 "data": [
  ["TTGCGCTCAGCAGTGGAGCGGT", -0.34],
  ["TAACTCAGTCAGCTCTCCCTGG", -0.77]
]}

ARHGEF15 sensor-assay potency score (higher = more potent) of TTGCTGGAGGAGTATTCTGAGG is -1.94

ARHGEF15 assay, sequence TTGGAGTAGTCGGTGGGTGGGG , recorded sensor-assay potency score (higher = more potent) = -0.515

# value of sensor-assay potency score (higher = more potent), ARHGEF15, item TTGCTAGAAACCGCTCGCTGAC = -1.26

For the sequence TGATCTTGCTGACAGCACCCAG , the measured sensor-assay potency score (higher = more potent) on ARHGEF15 was -1.42

Observed sensor-assay potency score (higher = more potent) on ARHGEF15, entry TTGCACAGCCGGAAGCTCCTGC , equals -0.0952

Value (sensor-assay potency score (higher = more potent), ARHGEF15) for record TATTCTGAGGAGCTTCATCAGG = -0.865

---

# System: MAP4K4
# Test description: pooled miR-30 sensor sort-seq; sequence = guide strand
# Assay setup: shRNA
Values of sensor-assay potency score (higher = more potent) greater than or equal to -0.6 map to Condition met; values below map to Condition not met.

Known results for sequences:
{"columns": ["Query sequence", "Group"],
 "data": [
  ["TTGACCACTGAGCCTTTCCGGG", "Condition not met"],
  ["TTGCCTTTTATATTCTTCCTGC", "Condition met"],
  ["TTCTCTTTCAACTCTCCTCTTT", "Condition met"],
  ["TTTGTTGAAATCGTCTTCGGTT", "Condition met"],
  ["TTCTTGTTCTCTCCTTCGCTGT", "Condition not met"]
]}

Consider the additional sequence presented here.
QUERY: Hi, just wondering whether TAGACTTGTCCATAGGTGCCAT shows sensor-assay potency score (higher = more potent) of -0.6 or higher.
RESULT: Condition met

---

# System: KCNJ4
# Test description: pooled miR-30 sensor sort-seq; sequence = guide strand
# Assay setup: shRNA
Each entry gets not met if its sensor-assay potency score (higher = more potent) stays under -0.7, and met if its sensor-assay potency score (higher = more potent) is -0.7 or above.

Worked cases, answers included:
{"columns": ["Query sequence", "Group"],
 "data": [
  ["TCGCTGGCCAGGTAGGAGCTGC", "not met"],
  ["TAGCGCTGCGACTTGTTGCTCA", "met"],
  ["TTACTCTCCTGCAGCTCCCGGG", "not met"],
  ["TTGTAGTGGCTCTTCTCCTCGA", "not met"]
]}

Kindly review the next sequence as well.
QUERY: Exam item: decide whether the reported sensor-assay potency score (higher = more potent) for AAAACGTGAGTAGTCCACCTTG is at least -0.7.
RESULT: met

---

# System: AHCY
# Test description: pooled miR-30 sensor sort-seq; sequence = guide strand
# Assay setup: shRNA
Observable: sensor-assay potency score (higher = more potent)
Write no unit; give the number alone.

{"columns": ["Query sequence", "Observed value"],
 "data": [
  ["TTGTCAAACTTGCTCTTGGTGA", -0.625],
  ["TCGATCTGCGCCATCACCTGGT", -0.451],
  ["ATGATGTCAATACAGCCTGTGG", -1.59]
]}

get_value(item= TTAGCTTGGTCAACTTCACATT , readout=sensor-assay potency score (higher = more potent)) returns -0.84

For record ATCTCGGTGATGATGACGCGGG the listed sensor-assay potency score (higher = more potent) is -1.23

Just so you know, measured sensor-assay potency score (higher = more potent) for TTGATGTTCACCTTCTCCACGG came out at 0.235

# sensor-assay potency score (higher = more potent) (sequence: ACACACAATGGCATCATCCTTC ) is -0.521

Sure, the documented sensor-assay potency score (higher = more potent) for TTCATCTGCTCAAAGTGCCGGC is -0.375

Reported sensor-assay potency score (higher = more potent) of TCTTTTAACATTATAGGCCAAA : -1.21

The reported sensor-assay potency score (higher = more potent) of the sequence TCATCTTGTAGAGGTTGTGGAC was -0.726

Lab book: sensor-assay potency score (higher = more potent) of TTGATGGGGTCAATCTCGGTGA noted as -1.04

The sequence TAGAGGTTGTCAAACTTGCTCT showed sensor-assay potency score (higher = more potent) equal to -0.554

---

# System: ATOX1
# Test description: pooled miR-30 sensor sort-seq; sequence = guide strand
# Assay setup: shRNA
Observable: sensor-assay potency score (higher = more potent)
Give the figure only, with no unit attached.

Known results for sequences:
{"columns": ["Query sequence", "Observed value"],
 "data": [
  ["TTTCCTGTTTTCTTCAGGGTTG", -0.588],
  ["TCAATGTCATACTTAACTCCTC", -0.482],
  ["TGTCATACTTAACTCCTCCAAG", -0.838],
  ["TTTTCTTCAGGGTTGCAAGCAG", 0.404],
  ["AATGCAGACCTTCTTGTTGGGC", -0.556],
  ["TTCAGGGTTGCAAGCAGAGTGT", -1.04],
  ["ATGTCATACTTAACTCCTCCAA", -0.956]
]}

Now, please, on to the next sequence.
The sequence listed as TAGGAAACAGTCTTTCCTGTTT shows sensor-assay potency score (higher = more potent) equal to -0.521

---

# System: KRTAP4-7
# Test description: pooled miR-30 sensor sort-seq; sequence = guide strand
# Assay setup: shRNA
Observable: sensor-assay potency score (higher = more potent)
Hey, just send me the number, nothing else.

Solved cases below.
{"columns": ["Query sequence", "Observed value"],
 "data": [
  ["CAGCAGGTCGTCTCACAGCAGC", -2.76],
  ["TAGCAGGTGGTCCTGCAACAGG", -1.7],
  ["TGGAGATGCAGCACCTAGGGTG", -0.36],
  ["TGGTCAGAGCACACGGAGCCAC", -1.43],
  ["AGCTGGACACACAACAGCTGGG", -1.49],
  ["TCAGTGACAAAACTGGTCCTGC", 0.367],
  ["TTGCAGCAGCTGGACATACAGC", -1.51]
]}

# next sequence below
In plain terms, CTGGACACACAACAGCTGGGGC has a documented sensor-assay potency score (higher = more potent) of -1.77
